Measured fold higher IC50 against hIP6K2 compared to 2 values are reported for all entries that follow.
# Tested on: hIP6K2 (Homo sapiens)
# Sequence (Q9UHH9 1-426): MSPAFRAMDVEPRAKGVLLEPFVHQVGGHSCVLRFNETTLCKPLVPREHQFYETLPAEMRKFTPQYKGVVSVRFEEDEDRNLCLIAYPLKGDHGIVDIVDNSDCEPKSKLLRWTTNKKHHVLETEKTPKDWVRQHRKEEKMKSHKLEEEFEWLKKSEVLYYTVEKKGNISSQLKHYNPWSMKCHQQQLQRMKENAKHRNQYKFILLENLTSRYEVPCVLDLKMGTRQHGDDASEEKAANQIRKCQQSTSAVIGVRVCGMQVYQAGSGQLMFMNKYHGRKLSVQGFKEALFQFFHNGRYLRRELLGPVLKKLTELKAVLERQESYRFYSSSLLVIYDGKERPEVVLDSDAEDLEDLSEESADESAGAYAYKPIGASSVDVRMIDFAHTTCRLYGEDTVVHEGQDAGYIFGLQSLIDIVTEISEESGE
# Experiment summary: hIP6K2 Adapta TR-FRET kinase assay
# Assay type: biochemical
# Assay setup: relative to compound 2
Kindly write the number and append the unit.

Guide cases for fold higher IC50 against hIP6K2 compared to 2, answers given:
{"columns": ["Smi", "Data value"],
 "data": [
  ["O=c1cc(-c2ccc(O)cc2)oc2cc(O)cc(O)c12", "10 fold"],
  ["COc1cc(O)c2c(=O)c(O)c(-c3ccc(O)c(O)c3)oc2c1", "2.6 fold"],
  ["O=c1cc(-c2ccc(O)c(O)c2)oc2cc(O)cc(O)c12", "1.9 fold"]
]}

// moving on: another record for fold higher IC50 against hIP6K2 compared to 2
q: Suppose we examine the molecule "O=c1c(O)c(-c2ccc(O)cc2)oc2cc(O)cc(O)c12" ; what fold higher IC50 against hIP6K2 compared to 2 value has been reported?
a: 3.6 fold
